Just for reference, the Kinase Knowledgebase extract (Sharma et al. 2016) is where these values come from.

Here we list compounds with their recorded IC50 when tested on EGFR (UniProt P00533).
Sequence (P00533 whole entry, looked up): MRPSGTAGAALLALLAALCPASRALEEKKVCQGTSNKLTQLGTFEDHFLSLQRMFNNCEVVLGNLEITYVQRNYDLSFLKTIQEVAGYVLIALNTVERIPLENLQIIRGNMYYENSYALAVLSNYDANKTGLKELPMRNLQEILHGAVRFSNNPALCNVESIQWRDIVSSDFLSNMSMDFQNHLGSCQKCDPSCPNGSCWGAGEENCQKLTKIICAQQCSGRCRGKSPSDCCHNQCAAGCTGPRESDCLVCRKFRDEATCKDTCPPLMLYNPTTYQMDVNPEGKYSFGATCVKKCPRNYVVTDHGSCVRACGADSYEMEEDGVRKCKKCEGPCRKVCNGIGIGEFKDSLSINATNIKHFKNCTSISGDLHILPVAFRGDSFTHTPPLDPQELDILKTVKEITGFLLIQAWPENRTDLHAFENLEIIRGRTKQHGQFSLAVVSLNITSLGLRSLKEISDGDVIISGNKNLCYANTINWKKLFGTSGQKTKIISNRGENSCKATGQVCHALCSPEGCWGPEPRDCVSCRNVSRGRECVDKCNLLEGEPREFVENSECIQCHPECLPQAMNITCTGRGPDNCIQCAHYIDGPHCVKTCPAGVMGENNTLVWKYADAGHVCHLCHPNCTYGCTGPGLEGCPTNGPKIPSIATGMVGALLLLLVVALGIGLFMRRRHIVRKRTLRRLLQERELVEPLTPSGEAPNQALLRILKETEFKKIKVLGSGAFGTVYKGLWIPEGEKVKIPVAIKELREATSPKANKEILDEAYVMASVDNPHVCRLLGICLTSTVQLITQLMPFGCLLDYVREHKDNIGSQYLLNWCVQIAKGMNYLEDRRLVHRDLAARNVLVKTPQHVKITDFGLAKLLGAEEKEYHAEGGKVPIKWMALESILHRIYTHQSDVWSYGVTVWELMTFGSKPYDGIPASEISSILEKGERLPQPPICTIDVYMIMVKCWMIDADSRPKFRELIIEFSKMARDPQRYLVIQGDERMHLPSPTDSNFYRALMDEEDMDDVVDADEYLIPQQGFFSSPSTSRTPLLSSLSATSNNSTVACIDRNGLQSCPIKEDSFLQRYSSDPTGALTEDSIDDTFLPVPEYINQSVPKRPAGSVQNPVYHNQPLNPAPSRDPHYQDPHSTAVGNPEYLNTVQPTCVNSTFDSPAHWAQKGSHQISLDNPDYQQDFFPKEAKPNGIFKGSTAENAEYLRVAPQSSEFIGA

INSERT INTO measurements (compound, readout_type, reported) VALUES
  ('COc1ccc(Nc2ncnc(Nc3ccc4[nH]ccc4c3)n2)cc1OC', 'IC50', '< 0.4 µg/mL'),
  ('Cc1ccc2c(c1)CCCN2c1ncnc(NCCCn2ccnc2)n1', 'IC50', '> 4.5 µg/mL'),
  ('O=c1[nH]c2ccccc2n1-c1ncnc(Nc2cccc3cccnc23)n1', 'IC50', '> 4.5 µg/mL'),
  ('CCOC(=O)Cc1ccc(Nc2ncnc(-c3ccccc3)n2)cc1', 'IC50', '> 4.5 µg/mL'),
  ('CN(c1cccc(Cl)c1)c1ncnc(Nc2ccc3nn(C)cc3c2)n1', 'IC50', '< 0.4 µg/mL');

Value sought: IC50, system EGFR (UniProt P00533), item `COC(=O)c1ccc(Nc2ncnc(-c3ccccc3)n2)cc1` . Result: > 4.5 µg/mL

---

- System Name: EGFR (UniProt P00533)
Quick reference: IC50 of the listed items.

Consider the worked cases shown below.
INSERT INTO measurements (compound, readout_type, reported) VALUES
  ('CN(c1cccc(Cl)c1)c1ncnc(Nc2ccc3c(cnn3Cc3ccccc3)c2)n1', 'IC50', '0.4 to 2.4 µg/mL'),
  ('CN(c1cccc(Cl)c1)c1ncnc(Nc2ccccc2)n1', 'IC50', '< 0.4 µg/mL'),
  ('COc1ccc(Nc2ncnc(NCc3cccc(Cl)c3)n2)cc1OC', 'IC50', '0.4 to 2.4 µg/mL'),
  ('COc1cc(Nc2ncnc(-n3c(N)nc4ccccc43)n2)ccc1OCCn1ccnn1', 'IC50', '> 4.5 µg/mL'),
  ('Nc1ncnc(Nc2nc(-c3ccccc3)cs2)n1', 'IC50', '> 4.5 µg/mL');

Considering `COc1ccc(Nc2ncnc(N(C)c3ccccc3)n2)cc1OC` , its IC50 with EGFR (UniProt P00533) was recorded as < 0.4 µg/mL

COc1ccc(Nc2ncnc(N(C)C3CCN(Cc4ccccc4)C3)n2)cc1OC (centres undefined) on EGFR (UniProt P00533) gives IC50 = > 4.5 µg/mL

Lab entry: EGFR (UniProt P00533) assay, compound `COc1cc(Nc2ncnc(-c3cccs3)n2)cc(OC)c1OC` , IC50 = > 4.5 µg/mL

IC50 for EGFR (UniProt P00533) with input `COc1ccc(Nc2nc3ccccc3n2-c2ncnc(Nc3cc(OC)c(OC)c(OC)c3)n2)c(C)c1` equals > 4.5 µg/mL

---

This listing pairs molecules with measured IC50.
- System Name: EGFR (UniProt P00533)

Here's what some known entries look like.
INSERT INTO results (molecule, readout_type, reported) VALUES
  ('COc1cc(Nc2ncnc(Nc3cccc(C(=O)O)c3)n2)cc(OC)c1OC', 'IC50', '< 0.4 µg/mL'),
  ('COc1cc(Nc2ncnc(-c3cccnc3Nc3ccc(C(F)(F)F)cc3)n2)cc(OC)c1OC', 'IC50', '> 4.5 µg/mL'),
  ('COc1cc(Nc2ncnc(-n3c(Nc4cc(OC)c(OC)c(OC)c4)nc4ccccc43)n2)cc(OC)c1OC', 'IC50', '> 4.5 µg/mL'),
  ('COc1cc(Nc2ncnc(Nc3cc(Cl)ccc3C)n2)cc(OC)c1OC', 'IC50', '< 0.4 µg/mL'),
  ('COc1cc(Nc2ncnc(-n3c(NC4CCc5ccccc54)nc4ccccc43)n2)cc(OC)c1OC (stereo not drawn)', 'IC50', '2.4 to 3.5 µg/mL');

Record `Fc1ccc(CNc2ncccc2-c2ncnc(Nc3cccc(Cn4ccnn4)c3)n2)cc1` / EGFR (UniProt P00533), IC50 recorded as 2.4 to 3.5 µg/mL

IC50 value, target or system EGFR (UniProt P00533), for `NCCCNc1ncnc(-c2ccccc2)n1` : > 4.5 µg/mL

Param item: `C=CCNc1cc(-c2ncnc(Nc3cc(OC)c(OC)c(OC)c3)n2)ccn1` ; param system: EGFR (UniProt P00533); output IC50: > 4.5 µg/mL
